Entry source: the supplement of paper PMC7877785

Experiment: self-splicing fitness, log relative to wild type (ln ratio); higher = more splicing; Tetrahymena group I intron in knt gene, E. coli kanamycin selection, DiMSum; sequences stand for … in CUCUCU…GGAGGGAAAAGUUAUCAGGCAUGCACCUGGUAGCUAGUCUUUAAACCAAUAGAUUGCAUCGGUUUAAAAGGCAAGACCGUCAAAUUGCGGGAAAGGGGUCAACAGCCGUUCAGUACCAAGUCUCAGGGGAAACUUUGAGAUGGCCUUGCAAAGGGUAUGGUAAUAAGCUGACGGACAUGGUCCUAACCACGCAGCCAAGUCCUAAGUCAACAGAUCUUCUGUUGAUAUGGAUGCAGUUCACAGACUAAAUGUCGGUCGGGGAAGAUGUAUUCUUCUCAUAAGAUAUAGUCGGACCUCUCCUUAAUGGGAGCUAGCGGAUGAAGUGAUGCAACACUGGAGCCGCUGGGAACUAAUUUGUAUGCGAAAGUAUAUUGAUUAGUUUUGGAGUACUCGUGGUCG;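 note: selection with 25 µg/mL kanamycin versus none on LB agar overnight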
Conditions: 37 °C
Measured self-splicing fitness (ln) determines class: class 1 (below -2), class 2 (-2 to below -1), class 3 (-1 or more)

Study these solved cases before continuing.
CCCUAGCAAUAUUACGGGAC = class 2
AAUUAGCAAUAUUACGAGAG = class 2
ACCUAGCAAUAUUACGUAUG = class 2

Here is another sequence to look at.
Which bin should I file CGUCAGCAAUAUUACGCCGC under?
class 2
